Hi there, I'd appreciate the recorded IC50 for every entry that follows.
Give just the number in nM; leave the unit off.

Query for Factor XIa (Homo sapiens, UniProt P03951): what IC50 does the record show for CN(C)c1ccnc2ccc(NC(=O)C3CCC4CC(c5c(-n6cnnn6)ccc(Cl)c5F)=CC(=O)N43)cc12 (stereo not shown) [compound 87] ?
20.8

Query for Factor XIa (Homo sapiens, UniProt P03951): what IC50 does the record show for Cn1nc2ccc(NC(=O)[C@@H]3CC[C@@H]4CC(c5c(-n6cnnn6)ccc(Cl)c5F)=CC(=O)N43)cc2n1 [ID No. 16] ?
25

* * *

Hi there, I'd appreciate the recorded IC50 for every entry that follows.
molecular target: human plasma kallikrein (Homo sapiens, UniProt P03952); assay: Kallikrein inhibition assay utilizing a quenched AMC peptide substrate (FLINT); conditions: 11-point, 3-fold serial dilution, top 1 μM; 30 min preincubation; 2 nM kallikrein; 50 μM Z-Gly-Pro-Arg-AMC; kinetic reads over 30 min
Sequence (P03952 391-638 limits assumed): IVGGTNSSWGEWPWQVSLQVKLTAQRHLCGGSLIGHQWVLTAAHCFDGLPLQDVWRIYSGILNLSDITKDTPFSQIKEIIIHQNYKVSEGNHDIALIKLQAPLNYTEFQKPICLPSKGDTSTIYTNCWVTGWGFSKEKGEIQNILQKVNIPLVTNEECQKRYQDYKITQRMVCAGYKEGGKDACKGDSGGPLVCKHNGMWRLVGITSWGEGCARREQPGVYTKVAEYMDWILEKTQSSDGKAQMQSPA
Sequence (P03952 20-390 partner limits assumed): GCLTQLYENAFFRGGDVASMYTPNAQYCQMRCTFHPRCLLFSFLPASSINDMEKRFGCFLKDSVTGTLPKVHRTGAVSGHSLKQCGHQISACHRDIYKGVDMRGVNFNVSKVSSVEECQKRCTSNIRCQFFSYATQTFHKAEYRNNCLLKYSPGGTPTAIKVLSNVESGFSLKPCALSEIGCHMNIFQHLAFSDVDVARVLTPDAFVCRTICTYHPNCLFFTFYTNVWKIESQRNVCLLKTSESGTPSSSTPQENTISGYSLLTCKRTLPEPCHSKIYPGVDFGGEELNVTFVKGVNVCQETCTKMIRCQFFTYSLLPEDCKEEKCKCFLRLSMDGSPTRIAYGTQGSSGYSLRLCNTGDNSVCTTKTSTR
Give just the number in nM; leave the unit off.

Query for human plasma kallikrein (Homo sapiens, UniProt P03952): what IC50 does the record show for CC1C[C@@H](C(=O)Nc2ccc3ncccc3c2)N2C(=O)C=C(c3c(-n4cnnn4)ccc(Cl)c3F)CC12 (mixture of isomers) [ID No. 82] ?
8

Query for human plasma kallikrein (Homo sapiens, UniProt P03952): what IC50 does the record show for O=C(Nc1ccc2n[nH]nc2c1)[C@@H]1CCC2CC(c3c(-n4cnnn4)ccc(Cl)c3F)=CC(=O)N21 (mixture of isomers) [ID No. 56] ?
19

Query for human plasma kallikrein (Homo sapiens, UniProt P03952): what IC50 does the record show for O=C(O)/C=C/c1ccc(NC(=O)[C@@H]2CCC3CC(c4c(-n5cnnn5)ccc(Cl)c4F)=CC(=O)N32)cc1 (mixture of isomers) [ID No. 32] ?
14.4

Query for human plasma kallikrein (Homo sapiens, UniProt P03952): what IC50 does the record show for O=C(Nc1ccc2[nH]nc(O)c2c1)[C@@H]1CCC2CC(c3c(-n4cnnn4)ccc(Cl)c3F)=CC(=O)N21 (mixture of isomers) [ID No. 57] ?
36.1

Cited source: patent US12286429B2
